assay: Multiple dose study in healthy male volunteers (Example 6); format: in vivo; conditions: human, plasma, 0.5 mg, Group II: 14 doses of 0.5 mg every day, fasted, read-out: AUC0-τ
PROPERTY LABEL: AUC (ng·h/mL)
# unit: ng·h/mL | format: bare number

Sample CN(C)C(=O)N[C@H]1CC[C@H](CCN2CCN(c3cccc(Cl)c3Cl)CC2)CC1 [cariprazine] — what was its AUC?
25

----------
Experiment: Linear calculated pharmacokinetic parameters (Table 33)
Format: in vivo
Settings: human, plasma, po, dose 6 mg, read-out: Mean AUC0-168
Protocol: Linear calculated pharmacokinetic parameters (based on the 2.0 mg data (Table 35, 80% of AUClast, Treatment I) for dosages greater than 2.0 mg and on the 0.5 mg data for dosages lower than 0.5 mg (Table 33) are shown in Table 33.
PROPERTY LABEL: AUC(0-t) (ng·h/mL)
# unit: ng·h/mL | format: bare number

Sample CN(C)C(=O)N[C@H]1CC[C@H](CCN2CCN(c3cccc(Cl)c3Cl)CC2)CC1 [cariprazine] — what was its AUC(0-t)?
194

----------
assay: Linear calculated pharmacokinetic parameters (Table 33); type: in vivo; settings: human, plasma, po, dose 4.5 mg
PROPERTY LABEL: Cmax (ng/mL)
# unit: ng/mL | format: bare number

Sample CN(C)C(=O)N[C@H]1CC[C@H](CCN2CCN(c3cccc(Cl)c3Cl)CC2)CC1 [cariprazine] — what was its Cmax?
5.7

----------
test: Double-blind placebo controlled single dose pharmacokinetic study of cariprazine capsules in healthy male volunteers (Example 4); assay type: in vivo, human; conditions: male, human, plasma, oral; mean; single dose 2.5 mg capsules, fasted; Group II Period 1
PROPERTY LABEL: Cmax (ng/mL)
# unit: ng/mL | format: bare number

Sample `CN(C)C(=O)N[C@H]1CC[C@H](CCN2CCN(c3cccc(Cl)c3Cl)CC2)CC1` — what was its Cmax?
2.5

----------
experiment: Double-blind placebo controlled single dose pharmacokinetic study of cariprazine capsules in healthy male volunteers (Example 4); assay type: in vivo, human; conditions: male, human, plasma, oral; mean; single dose 2.5 mg capsules, fasted; Group II Period 1; read-out: AUC0-168
PROPERTY LABEL: AUC(0-t) (ng·h/mL)
# unit: ng·h/mL | format: bare number

Sample `CN(C)C(=O)N[C@H]1CC[C@H](CCN2CCN(c3cccc(Cl)c3Cl)CC2)CC1` — what was its AUC(0-t)?
97.5

----------
Assay: Double-blind placebo controlled single dose pharmacokinetic study of cariprazine capsules in healthy male volunteers (Example 4)
Format: in vivo, human
Details: male, human, plasma, oral; mean; single dose 2.5 mg capsules, fasted; Group II Period 1
Method: The pharmacokinetic parameters described herein include area under the plasma concentration-time curve (AUC0-t and AUC0-∞), maximum plasma concentration (Cmax), time of maximum plasma concentration (Tmax) and terminal elimination half-life (T1/2). The time of maximum concentration, Tmax, is determined as the time corresponding to Cmax. […]
PROPERTY LABEL: Tmax (h)
# unit: h | format: bare number

Sample `CN(C)C(=O)N[C@H]1CC[C@H](CCN2CCN(c3cccc(Cl)c3Cl)CC2)CC1` — what was its Tmax?
4
